abundance fitness values for the variants below.
B1: Calcium-binding protein 2, residues 155 to 219; numbered along this chain, Q9NPB3 (parent)
chain: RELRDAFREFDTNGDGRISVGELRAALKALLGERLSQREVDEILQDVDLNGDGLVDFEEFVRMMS

Variants of: B1
assayOverview: abundance fitness (aPCA) (normalised: wild type 0, dead -1); higher = more abundant; growth selection in yeast, the domain comes from the species named
setupConditions: Homo sapiens
Keep it simple and answer with nothing but the number.

These recorded examples may help you get a feel for the data.
• G51D = 0.057
• V55K = -0.691
• A29E = -0.096
• M64C = 0.067

Continue with the next variant.
// returns reported abundance fitness for input L27N
0.088
